Experiment: wn = mass fraction of the nth substance listed
Conditions: 318.15 K; 101 kPa; Liquid; Concentric cylinders viscometry; w1 = 0.05
value_type: viscosity (mPa·s)
Write the answer as a number in mPa·s, unit excluded.

(Q) Item CC(O)CN (centres undefined) [1-amino-2-propanol] + O has what recorded viscosity?
(A) 0.7225

(Q) Item CC(O)CNCC(C)O (centres undefined) [N-(2-hydroxypropyl)-2-hydroxy-1-propanamine] + O has what recorded viscosity?
(A) 0.7442

(Q) Name the reported viscosity value associated with the compound CC(O)CN(CC(C)O)CC(C)O (centres undefined) [triisopropanolamine] + O
(A) 0.7315

(Q) Value lookup for viscosity; key = OCCNCCO [diethanolamine] + O
(A) 0.7137

====

Test: refractive index (Na D-line) (dimensionless); wn = mass fraction of the nth substance listed
Settings: 298.15 K; 101 kPa; Liquid; Standard Abbe refractometry; w1 = 0.15
value_type: refractive index
API note: the answer field is a bare number with no unit suffix.

(Q) Recorded refractive index for CC(O)CN (centres undefined) [1-amino-2-propanol] + O , please?
(A) 1.35281

(Q) # refractive index lookup, item CC(O)CN(CC(C)O)CC(C)O (centres undefined) [triisopropanolamine] + O
(A) 1.35565

(Q) Consider the molecule shown here: OCCNCCO [diethanolamine] + O What is its recorded refractive index?
(A) 1.35439

(Q) Look at this molecule and give its reported refractive index. CC(O)CNCC(C)O (centres undefined) [N-(2-hydroxypropyl)-2-hydroxy-1-propanamine] + O
(A) 1.35486

====

Task for the reader: assign each of the following compounds its reported mass density.
Test: wn = mass fraction of the nth substance listed
Details: 303.15 K; 101 kPa; Liquid; Vibrating tube method; w1 = 0.25
Only the number, expressed in kg/m3, is required.

(Q) Item OCCNCCO [diethanolamine] + O has what recorded mass density?
(A) 1025.19

(Q) Requested field: mass density. Item: CC(O)CNCC(C)O (centres undefined) [N-(2-hydroxypropyl)-2-hydroxy-1-propanamine] + O
(A) 1011.98

(Q) # mass density lookup, item CC(O)CN(CC(C)O)CC(C)O (centres undefined) [triisopropanolamine] + O
(A) 1012.73

(Q) Given the entry CC(O)CN (centres undefined) [1-amino-2-propanol] + O , report its measured mass density.
(A) 1000.2

====

Assay: refractive index (Na D-line) (dimensionless); wn = mass fraction of the nth substance listed
Conditions: 318.15 K; 101 kPa; Liquid; Standard Abbe refractometry; w1 = 0.05
value_type: refractive index
I only need the number, thanks.

(Q) Please report the recorded refractive index for CC(O)CN(CC(C)O)CC(C)O (centres undefined) [triisopropanolamine] + O .
(A) 1.33769

(Q) Would you kindly share the measured refractive index for OCCNCCO [diethanolamine] + O ?
(A) 1.33633

(Q) Record request: refractive index value, item CC(O)CNCC(C)O (centres undefined) [N-(2-hydroxypropyl)-2-hydroxy-1-propanamine] + O
(A) 1.33755

(Q) Given the molecule CC(O)CN (centres undefined) [1-amino-2-propanol] + O , what is its reported refractive index?
(A) 1.33578

====

Assay: wn = mass fraction of the nth substance listed
Conditions: 338.15 K; 101 kPa; Liquid; Vibrating tube method; w1 = 0.1
value_type: mass density (kg/m3)
Numbers only here, please. The scale is kg/m3.

(Q) # mass density lookup, item CC(O)CN(CC(C)O)CC(C)O (centres undefined) [triisopropanolamine] + O
(A) 985.961

(Q) So what does the record say about mass density for CC(O)CN (centres undefined) [1-amino-2-propanol] + O ?
(A) 981.198

(Q) Return reported mass density; argument: OCCNCCO [diethanolamine] + O
(A) 991.668

(Q) Param item = CC(O)CNCC(C)O (centres undefined) [N-(2-hydroxypropyl)-2-hydroxy-1-propanamine] + O ; retrieve measured mass density.
(A) 985.762

====

Provide the recorded refractive index for the entries that follow.
Assay: refractive index (Na D-line) (dimensionless); wn = mass fraction of the nth substance listed
Conditions: 328.15 K; 101 kPa; Liquid; Standard Abbe refractometry; w1 = 0.2
± gives the expanded uncertainty stated by the source.

(Q) // returns reported refractive index for input OCCNCCO [diethanolamine] + O
(A) 1.3568 ± 0.00031

(Q) Could you tell me which refractive index is on file for CC(O)CN(CC(C)O)CC(C)O (stereo not drawn) [triisopropanolamine] + O ?
(A) 1.35718 ± 0.00038

(Q) Looking for the measured refractive index of CC(O)CNCC(C)O (stereo not drawn) [N-(2-hydroxypropyl)-2-hydroxy-1-propanamine] + O , can you help?
(A) 1.35615 ± 0.00033

====

Provide the reported mass density of each item.
Experiment: wn = mass fraction of the nth substance listed
Settings: 308.15 K; 101 kPa; Liquid; Vibrating tube method; w1 = 0.05
Report as a plain number; the unit kg/m3 is understood.

(Q) Endpoint output: mass density of CC(O)CN (stereo not drawn) [1-amino-2-propanol] + O . Value?
(A) 995.386

(Q) Which mass density value belongs to CC(O)CN(CC(C)O)CC(C)O (stereo not drawn) [triisopropanolamine] + O ?
(A) 997.679

(Q) Query (compound): OCCNCCO [diethanolamine] + O ; field requested: mass density
(A) 1000.3
